Please provide measured one-hybrid fitness for binding NBS DNA for the entries that follow.
B1: Caulobacter ParB omega fusion; a variant is named by its letters at X, in order, B8GW30 (parent)
chain: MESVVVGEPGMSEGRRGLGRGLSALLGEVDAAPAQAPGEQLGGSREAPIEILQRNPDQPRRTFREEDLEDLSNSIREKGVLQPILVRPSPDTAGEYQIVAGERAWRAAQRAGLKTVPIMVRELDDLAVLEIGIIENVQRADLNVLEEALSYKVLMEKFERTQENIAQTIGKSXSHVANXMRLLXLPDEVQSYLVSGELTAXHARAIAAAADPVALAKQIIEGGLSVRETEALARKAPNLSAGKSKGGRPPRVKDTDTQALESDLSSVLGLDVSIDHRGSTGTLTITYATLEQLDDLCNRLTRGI

variants of: B1; test: one-hybrid fitness for binding NBS DNA (the Noc-binding site; scaled: cognate 1, non-cognate 0); higher = stronger binding; conditions: with NBS DNA site
Over roughly 81,000 sequences, “one-hybrid fitness for binding NBS DNA” has its median near -0.1; the highest 2% begin near 0.36. The entries come from a sample that favours the highest values as a whole.

IN: Could you please provide reported one-hybrid fitness for binding NBS DNA for HTQS ? Thanks!
OUT: ≤ 0.2

IN: Entry RASH needs its one-hybrid fitness for binding NBS DNA filled in; supply it.
OUT: ≤ 0.2

IN: Output one-hybrid fitness for binding NBS DNA of RWEY
OUT: ≤ 0.2

IN: Identify one-hybrid fitness for binding NBS DNA associated with the variant IVTS
OUT: ≤ 0.2

IN: Give reported one-hybrid fitness for binding NBS DNA value for DVHC
OUT: ≤ 0.2

IN: State its one-hybrid fitness for binding NBS DNA: QHVP
OUT: ≤ 0.2
